The reported numbers originate from patent US20250313625A1.

- system: T1, human LAG3, full length, stably expressed on cells (human, UniProt P18627 23-525)
- T1 construct: whole, on cells; also called CHOK1-human LAG3
- T1 sequence (looked up): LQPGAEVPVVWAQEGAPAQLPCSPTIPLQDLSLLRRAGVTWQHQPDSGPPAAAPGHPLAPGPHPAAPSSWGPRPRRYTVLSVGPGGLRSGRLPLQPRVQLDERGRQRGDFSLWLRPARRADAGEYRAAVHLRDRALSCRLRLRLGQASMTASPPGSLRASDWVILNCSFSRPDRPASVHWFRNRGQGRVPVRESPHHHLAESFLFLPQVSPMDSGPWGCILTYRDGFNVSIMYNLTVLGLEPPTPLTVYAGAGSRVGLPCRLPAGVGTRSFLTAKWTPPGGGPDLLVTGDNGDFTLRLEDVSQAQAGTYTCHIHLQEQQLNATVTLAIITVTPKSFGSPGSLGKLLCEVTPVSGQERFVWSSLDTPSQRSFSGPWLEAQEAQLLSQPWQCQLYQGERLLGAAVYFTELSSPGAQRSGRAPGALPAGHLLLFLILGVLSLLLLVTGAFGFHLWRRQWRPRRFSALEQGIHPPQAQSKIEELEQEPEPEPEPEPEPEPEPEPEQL
- assay.summary: FACS on 293F cells stably expressing human LAG3
pEC50: −log10 of the molar value.
Form field: pEC50 (one value per entry).

{"columns": ["binder", "pEC50"],
 "data": [
  ["027c (antibody, human IgG4, V domains shown, human IgG4 S228P / kappa chimeric antibody; also called chimeric antibody 027; not shown: human kappa light chain constant region (pcDNA3.4-hIgGk vector)) VH: EVKILQSGGGLVQPGGSLKLSCAASGIDFSRYWMSWVRRTPGKGLEWIGEINPDSSTINYAPSLKDKFIISRDNAKNTLYLQMSKVRSEDTALYYCARLGIIPTYHYGSSGYYYAMDYWGQGTSVTVSS VL: DVLMTQTPLSLPVSLGDRASISCRSSQTIVHGNGHTSLEWYLQKPGQSPQLLIYKVSNRFSGVPDRFSASGSGTDFTLTISRVEAEDLGVYYCFQVSHVPYTFGGGTKLEIK", 8.70],
  ["BAP-050 (antibody, V domains shown, also called BAP-50) VH: QIQLVQSGPELKKPGETVKISCKASGFTLTNYGMNWVRQTPGKGLKWMGWINTDTGEPTYADDFKGRFAFSLETSASTASLQINNLKNADTATYFCARNPPYYYGTNNAEAMDYWGQGTAVTVSS VL: DIQMTQTTSSLSASLGDRVTISCSSSQDISNYLNWYQQKPDGTVKVLIYYTSTLHLGVPSRFSGSGSGTDYSLTISNLELEDIATYYCQQYYNLPWTFGGGTKLEIK", 8.77],
  ["038c (antibody, human IgG4, V domains shown, human IgG4 S228P / kappa chimeric antibody; also called chimeric antibody 038; not shown: human kappa light chain constant region (pcDNA3.4-hIgGk vector)) VH: DVQVQESGPGLVKPSQSLSLTCSVTGYSITSGYYWNWIRQFPGNKLEWMGYISYDGSNEYNLSLKNRLSITRDTSKNQFFLKLNSVTTEDTATYYCAREEDGYYGGMDYWGQGTSVTVSS VL: DIVMTQSHKFMSASVGVRVSITCRASQDVDTAVAWYQQKPGQSPKLLIYWASTRHTGVPDRFTGSGSGTDFTLTISNVQSEDLADYFCQQYSSYPYTFGGGTKLEIK", 8.64]
]}
